# Test system: cancer cell lines
# runDescription: Cancer cell proliferation activity of representative nucleosides, CellTiterGlo 72 h (Example 7, Tables 8 and 9)
# Format: cell-based
# conditionParameters: Homo sapiens, A673, 72 h, A673, 72 h (Table 9)
assayEndpoint: IC50 (µM)
Numbers only; they are read as µM.

// below: answered compounds
[[record]]
compound = "Cc1cn([C@H]2C[C@H](O)[C@@](C#N)(CO)O2)c(=O)[nH]c1=O"
unitstring = "µM"
recordedvalue = 5.25

[[record]]
compound = "Nc1ccn([C@H]2C[C@H](O)[C@](CO)(CF)O2)c(=O)n1"
unitstring = "µM"
recordedvalue = 1.74


Fill in the blank: the reported IC50 of C#C[C@]1(CO)O[C@@H](n2cnc3c(N)nc(F)nc32)C[C@@H]1O [Islatravir (EFdA), Islatravir, reference compound] is ____.
4.57

* * *

Entries annotated with measured IC50
# Tested on: cancer cell lines
# runDescription: Cancer cell proliferation activity of representative nucleosides, CellTiterGlo 72 h (Example 7, Tables 8 and 9)
# Assay type: cell-based
# conditionParameters: Homo sapiens, SK-N-SH, 72 h, SKNSH, 72 h (Table 9)
Give just the numeric value; µM need not be written.

[[record]]
molecule = "Nc1nc(=O)n([C@@H]2C=C[C@H](CO)O2)cc1F [Elvucitabine, reference compound]"
recordedvalue = 6.99


Consider the record given below.
# query: IC50 of entry C#C[C@]1(CO)O[C@@H](n2cnc3c(N)nc(F)nc32)C[C@@H]1O [Islatravir (EFdA), Islatravir, reference compound]
3.37

* * *

# Tested on: SKHEP1
# runDescription: Cell proliferation Ex.3
# Type: cell-based
# conditionParameters: Homo sapiens, SK-HEP1; SKHEP1, 120 h
assayEndpoint: IC50

I am curious: what IC50 value has been reported for `C#C[C@]1(CO)O[C@@H](n2cc(F)c(N)nc2=O)C[C@@H]1O` ?
> 10 µM

* * *

# Tested on: Hutu 80
# runDescription: Cell proliferation CellTiterGlo Ex.2
# Type: cell-based
# conditionParameters: Homo sapiens, HuTu80; Hutu 80 (Duodenum), 72 h
assayEndpoint: IC50 (µM)
Dear colleague, please return just the value in µM, with no unit written.

What value of IC50 has been recorded for this entry: `C#C[C@]1(CO)O[C@@H](n2cnc3c(=O)[nH]c(N)nc32)C[C@@H]1O`
1.44

* * *

# Tested on: C33A
# runDescription: Cell proliferation Ex.3
# Format: cell-based
# conditionParameters: Homo sapiens, C-33-A, 72 h
pIC50: −log10 of the molar value.
assayEndpoint: pIC50

Param readout = pIC50; param system = C33A; param query = C#C[C@]1(CO)O[C@@H](n2cc(F)c(N)nc2=O)C[C@@H]1O [compound 9] ; response: value
< 5.00

* * *

# System: cancer cell lines
# runDescription: Cancer cell proliferation activity of representative nucleosides, CellTiterGlo 72 h (Example 7, Tables 8 and 9)
# Assay type: cell-based
# conditionParameters: Homo sapiens, PANC-1, 72 h, PANC1, pancreas, 72 h
pIC50: −log10 of the molar value.
Reported pIC50 values for a set of compounds

Use these answered entries as a reference point.
[[record]]
compound = "C#C[C@]1(CO)O[C@@H](n2cnc3c(=O)[nH]c(N)nc32)C[C@@H]1O [compound 13]"
recordedvalue = "< 4.30"

[[record]]
compound = "C#C[C@]1(CO)O[C@@H](n2cc(F)c(N)nc2=O)C[C@@H]1O [compound 9]"
recordedvalue = 5.19

[[record]]
compound = "CC[C@]1(CO)O[C@@H](n2cnc3c(N)nc(N)nc32)C[C@@H]1O [compound 25]"
recordedvalue = "< 4.30"

[[record]]
compound = "C#C[C@]1(CO)O[C@@H](n2ccc(N)nc2=O)C[C@@H]1O [compound 7]"
recordedvalue = "< 4.30"

[[record]]
compound = "C#C[C@]1(CO)O[C@@H](n2cc(F)c(=O)[nH]c2=O)C[C@@H]1O [compound 15]"
recordedvalue = "< 4.30"


Requested field: pIC50. Item: C[C@]1(CO)O[C@@H](n2ccc(N)nc2=O)C[C@@H]1O [compound 30]
5.94

Can you look up the measured pIC50 of CC[C@]1(CO)O[C@@H](n2ccc(N)nc2=O)C[C@@H]1O [compound 21] for me?
< 4.30

Fill in the blank: the reported pIC50 of N#C[C@]1(CO)O[C@@H](n2ccc(N)nc2=O)C[C@@H]1O [compound 29] is ____.
5.46

* * *

# System: DU-145
# runDescription: Cell proliferation CellTiterGlo Ex.2
# Type: cell-based
# conditionParameters: Homo sapiens; DU-145 (Prostate), 72 h
assayEndpoint: IC50 (µM)
Please give a number only; it is taken to be in µM.

IC50 for C#C[C@]1(CO)O[C@@H](n2cnc3c(=O)[nH]c(N)nc32)C[C@@H]1O [compound 13] ?
5.73

* * *

# System: T24
# runDescription: Cell proliferation Ex.3
# Type: cell-based
# conditionParameters: Homo sapiens, T-24; T24, 72 h
assayEndpoint: IC50

Fill in: IC50 of C#C[C@]1(CO)O[C@@H](n2cc(F)c(N)nc2=O)C[C@@H]1O [compound 9] is ___
> 10 µM

* * *

# Tested on: cancer cell lines
# runDescription: Cancer cell proliferation activity of representative nucleosides, CellTiterGlo 72 h (Example 7, Tables 8 and 9)
# Type: cell-based
# conditionParameters: Homo sapiens, MDA-MB-435, 72 h, MDAMB435, skin, 72 h
Consider the following compounds and their measured IC50 readings.
Response body: numeric value in µM, unit text excluded.

Completed entries (count: 2):
[[record]]
smilesstr = "C#C[C@]1(CO)O[C@@H](n2cc(F)c(N)nc2=O)C[C@@H]1O"
unitstring = "µM"
recordedvalue = 4.39

[[record]]
smilesstr = "N#C[C@]1(CO)O[C@@H](n2ccc(N)nc2=O)C[C@@H]1O"
unitstring = "µM"
recordedvalue = 2.12


Next:
Recorded IC50 for `C#C[C@]1(CO)O[C@@H](n2ccc(N)nc2=O)C[C@@H]1O` , please?
3.49

* * *

# Tested on: cancer cell lines
# runDescription: Cancer cell proliferation activity of representative nucleosides, CellTiterGlo 72 h (Example 7, Tables 8 and 9)
# Assay type: cell-based
# conditionParameters: Homo sapiens, HeLa, 72 h, endometrial
Property: pIC50; scope: individual compounds
Reminder that pIC50 is minus the log10 of a molar concentration.

[[record]]
smilesstr = "C#C[C@]1(CO)O[C@@H](n2ccc(N)nc2=O)C[C@@H]1O"
recordedvalue = 5.68

[[record]]
smilesstr = "CC[C@]1(CO)O[C@@H](n2cnc3c(N)nc(N)nc32)C[C@@H]1O"
recordedvalue = 5.51


We now examine a further compound.
Sample `N#C[C@]1(CO)O[C@@H](n2ccc(N)nc2=O)C[C@@H]1O` — what was its pIC50?
6.12

* * *

The following compounds are shown together with reported IC50 values.
# System: cancer cell lines
# runDescription: Cancer cell proliferation activity of representative nucleosides, CellTiterGlo 72 h (Example 7, Tables 8 and 9)
# Format: cell-based
# conditionParameters: Homo sapiens, SK-MEL-28, 72 h, SKMEL28, 72 h (Table 9)
Answer in µM, number only, no unit symbol.

[[record]]
compound = "C#C[C@]1(CO)O[C@@H](n2cnc3c(N)nc(F)nc32)C[C@@H]1O [Islatravir (EFdA), Islatravir, reference compound]"
unitstring = "µM"
recordedvalue = 3.84


Which IC50 is reported for this compound? `Nc1ccn([C@H]2C[C@H](O)[C@](CO)(CF)O2)c(=O)n1`
1.32

* * *

# System: MOLT-4
# runDescription: Cell proliferation CellTiterGlo Ex.2
# Assay type: cell-based
# conditionParameters: Homo sapiens; MOLT-4 (Blood), 72 h
assayEndpoint: IC50 (nM)
Numbers only; they are read as nM.

Quick check: IC50 on MOLT-4, item `C#C[C@]1(CO)O[C@@H](n2cnc3c(=O)[nH]c(N)nc32)C[C@@H]1O` ?
510

* * *

# Tested on: cancer cell lines
# runDescription: Cancer cell proliferation activity of representative nucleosides, CellTiterGlo 72 h (Example 7, Tables 8 and 9)
# Assay type: cell-based
# conditionParameters: Homo sapiens, HeLa, 72 h, endometrial
Collected IC50 values appear next to each entry.
The response must be a number in nM with no trailing unit.

[[record]]
smilesstr = "C[C@]1(CO)O[C@@H](n2ccc(N)nc2=O)C[C@@H]1O"
targetentity = "cancer cell lines"
recordedvalue = 330


# input for lookup
# get_value(readout='IC50', item= `C#C[C@]1(CO)O[C@@H](n2cnc3c(=O)[nH]c(N)nc32)C[C@@H]1O` )
1200

* * *

# Test system: cancer cell lines
# runDescription: Cancer cell proliferation activity of representative nucleosides, CellTiterGlo 72 h (Example 7, Tables 8 and 9)
# Assay type: cell-based
# conditionParameters: Homo sapiens, WSU-NHL, 72 h, hematological
assayEndpoint: pIC50
Lab note: report pIC50 as minus log10 of the concentration in molar units, number only.

[[record]]
smilesstr = "C#C[C@]1(CO)O[C@@H](n2ccc(N)nc2=O)C[C@@H]1O"
assayendpoint = "pIC50"
recordedvalue = 6.47

[[record]]
smilesstr = "C#C[C@]1(CO)O[C@@H](n2cc(F)c(=O)[nH]c2=O)C[C@@H]1O"
assayendpoint = "pIC50"
recordedvalue = 6.06

[[record]]
smilesstr = "C[C@]1(CO)O[C@@H](n2ccc(N)nc2=O)C[C@@H]1O"
assayendpoint = "pIC50"
recordedvalue = 6.68


If you can, please state the reported pIC50 value of `C#C[C@]1(CO)O[C@@H](n2cnc3c(=O)[nH]c(N)nc32)C[C@@H]1O` .
5.56
